Target: ALDH1a3 (Homo sapiens)
Construct: lentiviral vectors containing either the vector backbone or full-length human Aldh1a3; expressed in transfected cells; host or cells: SUM159-M1a (A1) and SUM159 (A7) breast cancer cells, lentiviral pLex vector, puromycin selection
Assay: ALDEFLUOR assay in SUM159-M1a-Aldh1a3 cells (flow cytometry)
Type: cell-based
Conditions: SUM159-M1a-Aldh1a3 cells, compound at 100 nM
Label rule met when Percent of Cells Positive for ALDEFLUOR at 100 nM is strictly below 60%; at or above that, label rule not met.

Q. For this compound, is Percent of Cells Positive for ALDEFLUOR at 100 nM lower than 60%? O=C1CCc2cc(NC(=O)c3ccncc3F)c(F)cc2N1
A. rule not met

Q. In the record for Cc1cncc(C(=O)Nc2cc3c(cc2F)NC(=O)CC3)c1 , is Percent of Cells Positive for ALDEFLUOR at 100 nM less than 60%?
A. rule met

Q. # check: Percent of Cells Positive for ALDEFLUOR at 100 nM < 60% for CCc1cnccc1C(=O)Nc1cc2c(cc1F)NC(=O)CC2
A. rule met

Q. Dear reviewer, please state whether CCc1cnccc1C(=O)Nc1ccc2c(c1)CCC(=O)N2 has Percent of Cells Positive for ALDEFLUOR at 100 nM strictly beneath 60%.
A. rule met

Q. Is the reported Percent of Cells Positive for ALDEFLUOR at 100 nM for O=C1CCc2cc(NCc3ccc[nH]3)c(F)cc2N1 strictly below 60%?
A. rule not met

Q. Strictly below 60% in Percent of Cells Positive for ALDEFLUOR at 100 nM? CCc1ccccc1C(=O)Nc1cc2c(cc1F)NC(=O)CC2
A. rule met

====

Assay: Plasma pharmacokinetics in mice by LC/MS/MS
Assay type: in vivo, mouse
Conditions: male, C57BL6, mouse, plasma, ip, 25 mg/kg, Time 24 hr, i.p.; integrated peak area less than LOD; read-out: Concentration in mouse plasma, Mean, forced to calculate
readout: concentration at 24 h (ng/mL)
Write it as a number; the unit ng/mL goes unstated.

Q. // concentration at 24 h lookup, key: CCc1ccccc1C(=O)Nc1cc2c(cc1F)NC(=O)CC2 [MBE1.5]
A. 4

====

Assay: Plasma pharmacokinetics in mice by LC/MS/MS
Format: in vivo, mouse
Conditions: male, C57BL6, mouse, plasma, ip, 25 mg/kg, Time 1 hr
readout: concentration at 1 h (ng/mL)
Kindly answer with a numeric value in ng/mL, unit omitted.

Q. Need concentration at 1 h, item CCc1ccccc1C(=O)Nc1cc2c(cc1F)NC(=O)CC2 [MBE1.5]
A. 3980

====

Target: ALDH1a3 (Homo sapiens, UniProt P47895)
Construct: lentiviral vectors containing either the vector backbone or full-length human Aldh1a3; expressed in transfected cells; host or cells: SUM159-M1a (A1) and SUM159 (A7) breast cancer cells, lentiviral pLex vector, puromycin selection
Test: ALDEFLUOR assay in SUM159-M1a-Aldh1a3 cells (flow cytometry)
Format: cell-based
pIC50: −log10 of the molar value.
readout: pIC50

Q. Form field: pIC50 recorded for CCc1cnccc1C(=O)Nc1cc2c(cc1F)NC(=O)CC2 with ALDH1a3 (Homo sapiens, UniProt P47895) (enter value)
A. 8.00 to 8.10

====

Target: ALDH1a3 (Homo sapiens)
Construct: lentiviral vectors containing either the vector backbone or full-length human Aldh1a3; expressed in transfected cells; host or cells: SUM159-M1a (A1) and SUM159 (A7) breast cancer cells, lentiviral pLex vector, puromycin selection
Sequence (P47895 1-512): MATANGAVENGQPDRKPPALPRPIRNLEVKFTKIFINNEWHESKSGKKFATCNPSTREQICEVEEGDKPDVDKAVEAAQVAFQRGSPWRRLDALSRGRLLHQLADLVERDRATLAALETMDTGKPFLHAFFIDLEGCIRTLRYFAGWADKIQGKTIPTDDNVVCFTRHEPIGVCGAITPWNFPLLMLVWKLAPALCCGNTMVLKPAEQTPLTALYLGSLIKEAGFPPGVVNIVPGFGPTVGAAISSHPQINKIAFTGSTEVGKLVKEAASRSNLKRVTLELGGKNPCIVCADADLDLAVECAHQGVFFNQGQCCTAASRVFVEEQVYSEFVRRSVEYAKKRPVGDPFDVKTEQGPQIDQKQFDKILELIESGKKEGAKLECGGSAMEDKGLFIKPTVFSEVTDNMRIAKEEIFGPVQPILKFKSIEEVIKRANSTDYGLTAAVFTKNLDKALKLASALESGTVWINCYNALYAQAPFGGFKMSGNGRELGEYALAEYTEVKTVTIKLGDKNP
Experiment: ALDEFLUOR assay in SUM159-M1a-Aldh1a3 cells (flow cytometry)
Type: cell-based
Conditions: SUM159-M1a-Aldh1a3 cells, compound at 100 nM; read-out: Inhibitory Activity at 100 nM (%)
Description: Cells were counted, centrifuged and resuspended at 1,000,000 cells/mL in ALDEFLUOR™ buffer (Stemcell Technologies). ALDEFLUOR™ substrate (Stemcell Technologies, 1:200) and test compound or 1 mM DEAB were added to cell suspension and incubated at 37° C. for 45 minutes with vortexing every 15 minutes. […] Samples were analyzed with the BD LSR2 flow cytometry platform. […] Gating for background fluorescence was performed using 1 millimolar DEAB as a negative control. […]
Just so you know, the groups by inhibition at 0.1 µM go like this: LOW: < 8%; MID: ≥ 8% and < 40%; HIGH: ≥ 40%

Q. Bin? Cc1ccc(C(=O)Nc2ccc3c(c2)CCC(=O)N3)cc1C
A. LOW

Q. # bin label for Cc1cncc(C(=O)Nc2cc3c(cc2F)NC(=O)CC3)c1
A. MID

Q. Determine which band this compound sits in: CCc1cnccc1C(=O)Nc1cc2c(cc1F)NC(=O)CC2
A. HIGH

Q. Lab log: O=C1CCc2cc(NCc3ccccc3)ccc2N1 — assign inhibition at 0.1 µM category
A. MID

Q. Pick a category. Item: CCc1cnccc1C(=O)Nc1ccc2c(c1)CCC(=O)N2
A. HIGH

Q. Which of the defined bands does the recorded inhibition at 0.1 µM of CCc1ccccc1C(=O)Nc1cc2c(cc1F)NC(=O)CC2 sit within?
A. HIGH

Q. Hi, small favor: classify O=C1CCc2cc(NCc3ccc[nH]3)c(F)cc2N1 by its inhibition at 0.1 µM when you get a moment.
A. LOW

Q. Sort Cc1ccccc1C(=O)Nc1ccc2c(c1)CCC(=O)N2 into one of the categories.
A. HIGH

Q. Band for O=C1CCc2cc(NC(=O)c3ccncc3F)c(F)cc2N1 ?
A. MID

Q. Note: place this compound into its band. Item: Cc1ccc(C(=O)Nc2ccc3c(c2)CCC(=O)N3)c(C)c1
A. LOW

Q. Form: Item = Cc1ccc(C)c(CNc2ccc3c(c2)CCC(=O)N3)c1 ; Class = ?
A. HIGH

====

Test: Plasma pharmacokinetics in mice by LC/MS/MS
Format: in vivo, mouse
Conditions: male, C57BL6, mouse, plasma, ip, 25 mg/kg, Time 0.5 hr
readout: concentration at 0.5 h (ng/mL)
Report as a plain number; the unit ng/mL is understood.

Q. Suppose we examine the compound CCc1ccccc1C(=O)Nc1cc2c(cc1F)NC(=O)CC2 ; what concentration at 0.5 h value has been reported?
A. 5000

====

Assay: Plasma pharmacokinetics in mice by LC/MS/MS
Format: in vivo, mouse
Conditions: male, C57BL6, mouse, plasma, ip, 25 mg/kg, mice, dose 25 mg/kg, i.p.; calculation: time point to 24 hr; noncompartment model
readout: AUC(0-inf) (ng·h/mL)
Your answer is read as ng·h/mL, so omit the unit and give the number.

Q. State the recorded AUC(0-inf) for this entry: CCc1ccccc1C(=O)Nc1cc2c(cc1F)NC(=O)CC2
A. 16900

====

Test: Plasma pharmacokinetics in mice by LC/MS/MS
Format: in vivo, mouse
Settings: male, C57BL6, mouse, plasma, ip, 25 mg/kg, mice, dose 25 mg/kg, i.p.; calculation: time point to 3 hr; noncompartment model
readout: AUC(0-inf) (ng·h/mL)
All answers are understood in ng·h/mL, so give the number only.

Q. Quick check: AUC(0-inf) of CCc1ccccc1C(=O)Nc1cc2c(cc1F)NC(=O)CC2 [MBE1.5] ?
A. 15700

Where do these numbers come from? They come from patent US12162855B2.
